# test.method.notes: Parallel artificial membrane permeability assay (PAMPA), in vitro model of the BBB
# applied.conditions: pH 7.4, Effective permeability class according to the empirical BBB permeation prediction, pH 7.4, classes by ref 19
parameter: Papp

# molecule, observed.result
records = [
    ("CC(C)C[C@H](NC(=O)[C@]1(C(F)(F)F)CCCN1)C(=O)NCC(N)=O [(S,S)-2]", "2 to 4 ×10⁻⁶ cm/s"),
]

Incoming: Please indicate Papp recorded for CC(C)C[C@H](NC(=O)[C@@]1(C(F)(F)F)CCCN1)C(=O)NCC(N)=O [(R,S)-2, (R)-α-CF3-Pro-L-Leu-Gly-NH2]
Outgoing: < 2 ×10⁻⁶ cm/s

---

# test.method.notes: Parallel artificial membrane permeability assay (PAMPA), in vitro model of the BBB
# applied.conditions: pH 7.4, Pe (× 10^6), effective permeability, pH 7.4, 4 h, 5 mM, mean ± SD
parameter: Papp (×10⁻⁶ cm/s)

P = CC(C)C[C@H](NC(=O)[C@@]1(C(F)(F)F)CCCN1)C(=O)NCC(N)=O [(R,S)-2, (R)-α-CF3-Pro-L-Leu-Gly-NH2]
Q = CC(C)C[C@H](NC(=O)[C@]1(C(F)(F)F)CCCN1)C(=O)NCC(N)=O [(S,S)-2]
Incoming: Compare reported Papp values for P and Q . Which is lower? Reply briefly: the label of your chosen item.
Outgoing: P
